What follows is a record of Kd for UniProt:P17931.
Sequence (P17931 whole entry): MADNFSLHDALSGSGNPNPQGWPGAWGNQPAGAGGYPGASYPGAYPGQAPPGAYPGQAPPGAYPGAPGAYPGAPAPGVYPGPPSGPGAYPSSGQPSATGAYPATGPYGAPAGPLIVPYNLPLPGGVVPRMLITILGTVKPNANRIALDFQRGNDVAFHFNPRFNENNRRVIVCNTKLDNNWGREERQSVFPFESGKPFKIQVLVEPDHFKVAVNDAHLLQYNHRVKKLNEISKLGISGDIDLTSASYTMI

Reference set (2 entries):
[[record]]
molecule = "OC[C@H]1O[C@@H](S[C@@H]2O[C@H](CO)[C@H](O)[C@H](OCc3ccc4ccccc4n3)[C@H]2O)[C@H](O)[C@@H](OCc2ccc3ccccc3n2)[C@H]1O [Compound 1]"
parametermeasured = "Kd"
result = "1700 nM"

[[record]]
molecule = "OC[C@H]1O[C@@H](S[C@@H]2O[C@H](CO)[C@H](O)[C@H](OCc3ccc4ccccc4c3)[C@H]2O)[C@H](O)[C@@H](OCc2ccc3ccccc3c2)[C@H]1O [Compound 2]"
parametermeasured = "Kd"
result = "550 nM"


Next:
query: For the record OC[C@H]1O[C@@H](S[C@@H]2O[C@H](CO)[C@H](O)[C@H](OCc3ccccc3)[C@H]2O)[C@H](O)[C@@H](OCc2ccccc2)[C@H]1O [Compound 3] , what value of Kd is listed for UniProt:P17931?
result: 2190 nM
